Task for the reader: assign each of the following compounds its reported log10 EC50.
tested-system: ΔF508-CFTR (Homo sapiens, UniProt P13569, DEL508-508)
Construct: host or cells: CFBE41o-, doxycycline-inducible
Sequence (P13569 with tags, fused parts or gaps DEL508-508): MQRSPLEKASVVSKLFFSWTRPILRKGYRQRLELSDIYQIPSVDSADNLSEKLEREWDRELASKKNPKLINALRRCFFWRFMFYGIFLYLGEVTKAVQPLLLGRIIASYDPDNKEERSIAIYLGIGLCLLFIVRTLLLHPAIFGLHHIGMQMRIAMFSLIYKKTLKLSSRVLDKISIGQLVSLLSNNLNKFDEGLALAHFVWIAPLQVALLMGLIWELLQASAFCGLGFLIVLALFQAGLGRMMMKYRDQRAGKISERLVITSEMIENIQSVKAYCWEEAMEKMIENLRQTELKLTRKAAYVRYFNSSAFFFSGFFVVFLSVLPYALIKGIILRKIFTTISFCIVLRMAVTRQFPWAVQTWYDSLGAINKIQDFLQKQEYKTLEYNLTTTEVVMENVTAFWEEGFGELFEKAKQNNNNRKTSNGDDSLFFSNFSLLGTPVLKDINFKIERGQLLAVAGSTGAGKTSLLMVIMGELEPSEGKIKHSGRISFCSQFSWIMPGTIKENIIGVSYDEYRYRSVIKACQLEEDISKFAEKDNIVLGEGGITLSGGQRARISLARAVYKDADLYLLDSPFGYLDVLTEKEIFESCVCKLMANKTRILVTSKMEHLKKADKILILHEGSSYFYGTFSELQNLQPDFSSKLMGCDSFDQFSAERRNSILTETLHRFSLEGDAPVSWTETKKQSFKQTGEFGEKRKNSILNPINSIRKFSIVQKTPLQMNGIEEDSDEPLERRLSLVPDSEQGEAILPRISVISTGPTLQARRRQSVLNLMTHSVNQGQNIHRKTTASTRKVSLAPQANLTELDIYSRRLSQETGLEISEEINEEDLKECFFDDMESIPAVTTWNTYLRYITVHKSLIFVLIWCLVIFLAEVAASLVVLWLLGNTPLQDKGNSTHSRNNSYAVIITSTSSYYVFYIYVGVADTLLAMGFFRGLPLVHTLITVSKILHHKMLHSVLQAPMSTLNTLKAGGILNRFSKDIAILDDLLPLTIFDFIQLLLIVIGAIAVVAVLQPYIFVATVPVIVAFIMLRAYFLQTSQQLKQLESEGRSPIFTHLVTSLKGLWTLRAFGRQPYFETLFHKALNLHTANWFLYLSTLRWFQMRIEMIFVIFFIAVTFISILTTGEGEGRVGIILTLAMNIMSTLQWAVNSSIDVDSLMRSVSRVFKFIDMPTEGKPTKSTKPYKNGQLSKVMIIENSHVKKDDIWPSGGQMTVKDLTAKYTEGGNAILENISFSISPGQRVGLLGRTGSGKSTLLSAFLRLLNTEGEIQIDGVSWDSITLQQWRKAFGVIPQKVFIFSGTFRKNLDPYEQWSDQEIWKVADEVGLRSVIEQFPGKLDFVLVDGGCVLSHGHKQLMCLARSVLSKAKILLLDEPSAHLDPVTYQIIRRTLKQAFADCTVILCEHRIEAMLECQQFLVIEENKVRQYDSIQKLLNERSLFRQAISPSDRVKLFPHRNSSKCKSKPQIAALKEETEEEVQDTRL
experiment-description: CFTR cell surface levels using HRP-tagged ΔF508-CFTR expressing CFBE cells, in the presence of a co-corrector
Format: cell-based
run-parameters: HRP-tagged ΔF508-CFTR expressing CFBE cells, in the presence of 3 μM co-corrector; read-out: EC50
Friendly reminder: values = log10 of EC50, unit nM.

// returns reported log10 EC50 for input CC(C)c1nn(C2CCCCC2)c2nc(C(=O)O)cc(N3CCCCC3)c12
3.14

// returns reported log10 EC50 for input O=C(O)c1cc(N2CC[C@@H](O)[C@H](F)C2)c2c(C3CCC3)nn(-c3ccccc3)c2n1
2.61

// returns reported log10 EC50 for input CCOCC1(F)CCN(c2cc(C(=O)O)nc3c2c(C2CCC2)nn3-c2ccccc2)C1 (centres unmarked)
2.60

// returns reported log10 EC50 for input N#CC1COC2(C1)CN(c1cc(C(=O)O)nc3c1c(C1CCC1)nn3-c1ccccc1)C2 (centres unmarked)
2.89

// returns reported log10 EC50 for input COCC1CCN(c2cc(C(=O)O)nc3c2c(C)nn3-c2ccccc2)CC1
3.15

// returns reported log10 EC50 for input COCCC1(COc2cc(C(=O)O)nc3c2c(C)nn3-c2ccccc2)CC1
3.16

// returns reported log10 EC50 for input CC1CCN(CCC2CCN(c3cc(C(=O)O)nc4c3c(C3CCC3)nn4-c3ccccc3)CC2)CC1
1.95

// returns reported log10 EC50 for input O=CN1CCN(CC2CCN(c3cc(C(=O)O)nc4c3c(C3CCC3)nn4-c3ccccc3)CC2)CC1
2.32

====

tested-system: ΔF508-CFTR (Homo sapiens, UniProt P13569, DEL508-508)
Construct: host or cells: CFBE41o-, doxycycline-inducible
experiment-description: CFTR cell surface levels using HRP-tagged ΔF508-CFTR expressing CFBE cells, intrinsic corrector capacity
Type: cell-based
run-parameters: HRP-tagged ΔF508-CFTR CFBE41o- cells, compounds alone (intrinsic corrector capacity), 20 hours at 33° C.; read-out: EC50
Text: Measuring CFTR Cell Surface Levels Using HRP-Tagged AF508-CFTR Expressing CFBE Cells The HRP-tagged AF508-CFTR cell assay measures the expression of CFTR-ΔF508 at the plasma membrane. […] When HRP-tagged AF508-CFTR is present at the plasma membrane, the HRP enzyme activity can be measured. The amount of CFTR-ΔF508 that can be rescued to the plasma membrane is correlated with the amount of functional enzyme that can be measured. […]
Friendly reminder: EC50 below 1 µM is condition met, at or above is condition not met.

I'd appreciate it if you could check whether CC(C)c1nn(-c2ccc(F)cc2)c2nc(C(=O)O)cc(N3CCC(CO)CC3)c12 has EC50 smaller than 1 µM.
condition not met

I'd appreciate it if you could check whether Cc1nn(-c2ccccc2)c2nc(C(=O)O)cc(OC[C@@H](F)C3CCOCC3)c12 has EC50 smaller than 1 µM.
condition not met

I'd appreciate it if you could check whether Cc1nn(-c2ccccc2)c2nc(C(=O)O)cc(-c3cnc(N4CCOCC4)nc3)c12 has EC50 smaller than 1 µM.
condition not met

I'd appreciate it if you could check whether Cc1cccc(-n2nc(C(C)C)c3c(N4CC5(CCOCC5)C4)cc(C(=O)O)nc32)c1 has EC50 smaller than 1 µM.
condition not met

I'd appreciate it if you could check whether CN(C)c1ccc(-n2nc(C3CCC3)c3c(-c4ccc(N5CCOCC5)cc4)cc(C(=O)O)nc32)cc1 has EC50 smaller than 1 µM.
condition met

I'd appreciate it if you could check whether Cc1nn(-c2ccccc2)c2nc(C(=O)O)cc(N3CCC(C(=O)N(C)C)CC3)c12 has EC50 smaller than 1 µM.
condition not met

====

tested-system: ΔF508-CFTR (Homo sapiens, UniProt P13569, DEL508-508)
Construct: host or cells: CFBE41o-, doxycycline-inducible
experiment-description: CFTR cell surface levels using HRP-tagged ΔF508-CFTR expressing CFBE cells, in the presence of a co-corrector
Assay type: cell-based
run-parameters: HRP-tagged ΔF508-CFTR expressing CFBE cells, in the presence of 3 μM co-corrector
Task for the reader: assign each of the following compounds its reported % Activation.
Quick reminder: number only, in %, skip the unit.

// returns reported % Activation for input O=C(O)c1cc(N2CCN(CCCN3CCOCC3)CC2)c2c(C3CCC3)nn(-c3ccccc3)c2n1
322.5

// returns reported % Activation for input COCC1(F)CCN(c2cc(C(=O)O)nc3c2c(C2CCC2)nn3-c2ccccc2)C1 (centres unmarked)
271.8

// returns reported % Activation for input CCOCCN1CCN(C2CCN(c3cc(C(=O)O)nc4c3c(C(C)C)nn4-c3ccc(F)cc3)CC2)CC1
457.5

// returns reported % Activation for input COCC1CCN(c2cc(C(=O)O)nc3c2c(C(C)C)nn3CC2CCC2)CC1
318.7

// returns reported % Activation for input O=C(O)c1cc(N2CC[C@H](F)[C@H](O)C2)c2c(C3CCC3)nn(-c3ccccc3)c2n1
205.9

// returns reported % Activation for input O=C(O)c1cc(N2CCC(C(F)CO)CC2)c2c(C3CCC3)nn(-c3ccccc3)c2n1 (centres unmarked)
450.25

// returns reported % Activation for input COC(C)(C)C1CCN(c2cc(C(=O)O)nc3c2c(C2CCC2)nn3-c2ccccc2)CC1
531.3

// returns reported % Activation for input CC(C)COC(=O)N1CCN(c2cc(C(=O)O)nc3c2c(C2CCC2)nn3-c2ccccc2)CC1
498.5

====

tested-system: ΔF508-CFTR (Homo sapiens, UniProt P13569, DEL508-508)
Construct: host or cells: CFBE41o-, doxycycline-inducible
experiment-description: CFTR cell surface levels using HRP-tagged ΔF508-CFTR expressing CFBE cells, in the presence of a co-corrector
Assay type: cell-based
run-parameters: HRP-tagged ΔF508-CFTR expressing CFBE cells, in the presence of 3 μM co-corrector
Task for the reader: assign each of the following molecules its reported % Activation.
Quick reminder: number only, in %, skip the unit.

// returns reported % Activation for input CC(C)N1CCC2(CCN(c3cc(C(=O)O)nc4c3c(C3CCC3)nn4-c3ccc(F)cc3)CC2)CC1
406.67

// returns reported % Activation for input COCC(COC)Oc1cc(C(=O)O)nc2c1c(C(C)C)nn2-c1ccc(F)cc1
245.5

// returns reported % Activation for input O=C(O)c1cc(N2CCC(CN3CCCC3)CC2)c2c(C3CCC3)nn(-c3ccc(F)cc3)c2n1
430

// returns reported % Activation for input CC(C)c1nn(-c2ccnc(N3CCOCC3)c2)c2nc(C(=O)O)cc(-c3ccc(N4CCC(C#N)CC4)nc3)c12
419.53

// returns reported % Activation for input Cc1nn(C2CCCCC2)c2nc(C(=O)O)cc(-c3cnc(N4CCOCC4)nc3)c12
258.2

// returns reported % Activation for input CC(C1CCN(c2cc(C(=O)O)nc3c2c(C2CCC2)nn3-c2ccccc2)CC1)N1CCOCC1 (stereo not shown)
600.53

// returns reported % Activation for input O=C(O)c1cc(N2CCC(N3CCOCC3)CC2)c2c(C3CCC3)nn(-c3cccc(OC(F)F)c3)c2n1
499.9

====

tested-system: ΔF508-CFTR (Homo sapiens, UniProt P13569, DEL508-508)
Construct: host or cells: CFBE41o-, doxycycline-inducible
experiment-description: CFTR cell surface levels using HRP-tagged ΔF508-CFTR expressing CFBE cells, in the presence of a co-corrector
Assay type: cell-based
run-parameters: HRP-tagged ΔF508-CFTR expressing CFBE cells, in the presence of 3 μM co-corrector
Task for the reader: assign each of the following compounds its reported % Activation.
Quick reminder: number only, in %, skip the unit.

// returns reported % Activation for input O=C(O)c1cc(OCC2CCCC2(F)F)c2c(C3CCC3)nn(-c3ccccc3)c2n1 (stereo not shown)
299

// returns reported % Activation for input CC(C)c1nn(-c2ccc(F)cc2)c2nc(C(=O)O)cc(N3CCN(C(=O)N(C)C)CC3)c12
375.6

// returns reported % Activation for input CCCN1CCCN(c2cc(C(=O)O)nc3c2c(C2CCC2)nn3-c2ccccc2)CC1
242.9

// returns reported % Activation for input CNC[C@@H]1CCN(c2cc(C(=O)O)nc3c2c(C2CCC2)nn3-c2ccccc2)C1
164.55
